Please respond with reported Minimum Effective Dose (MED) for every item in the list.
Tested on: 5-HT3
Assay: Bezold-Jarisch reflex: reduction of 5-HT-induced bradycardia in anesthetized mice
Format: in vivo
Settings: i.p., 30 min before 5-HT 0.25 mg/kg i.v.; >50% reduction of bradycardia considered significant

{"columns": ["molecule", "metricName", "result"],
 "data": [
  ["O=c1[nH]c2ccccc2n1CCCN1CCC(n2c(=O)[nH]c3cc(Cl)ccc32)CC1", "Minimum Effective Dose (MED)", "> 10 mg/kg"],
  ["CCN(CC)CCNC(=O)c1cc(Cl)c(N)cc1OC [metoclopramide]", "Minimum Effective Dose (MED)", "5 mg/kg"],
  ["CN1[C@@H]2C[C@@H](OC(=O)[C@H](CO)c3ccccc3)C[C@H]1[C@@H]1O[C@@H]12", "Minimum Effective Dose (MED)", "2.5 mg/kg"],
  ["CN1C2CCCC1CC(NC(=O)c1nn(C)c3ccccc13)C2 (centres unmarked)", "Minimum Effective Dose (MED)", "0.05 mg/kg"]
]}

Let's switch to this molecule now.
Please report Minimum Effective Dose (MED) for the following molecule: `CC(C)n1c(=O)n(C(=O)NCC23CCN(CC2)CC3)c2ccccc21`
0.03 mg/kg

* * *

Target: 5-HT3 receptor (Rattus norvegicus)
Sequence (P35563 24-483): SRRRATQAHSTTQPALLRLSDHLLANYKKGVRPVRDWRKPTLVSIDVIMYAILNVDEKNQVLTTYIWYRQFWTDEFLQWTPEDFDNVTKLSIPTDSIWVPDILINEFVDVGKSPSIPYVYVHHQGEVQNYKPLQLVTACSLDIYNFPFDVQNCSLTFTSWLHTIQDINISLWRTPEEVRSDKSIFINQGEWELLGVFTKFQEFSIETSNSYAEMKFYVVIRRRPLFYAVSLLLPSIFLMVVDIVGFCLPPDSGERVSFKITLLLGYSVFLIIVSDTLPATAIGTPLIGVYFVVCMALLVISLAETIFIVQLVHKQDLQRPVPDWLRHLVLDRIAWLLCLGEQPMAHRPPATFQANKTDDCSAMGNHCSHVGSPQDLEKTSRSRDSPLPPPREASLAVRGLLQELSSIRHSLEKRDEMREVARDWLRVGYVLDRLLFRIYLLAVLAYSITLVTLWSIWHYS
metricName: Ki (nM)
Numbers only, in nM.

Please supply the value of reported Ki for the item `CC(C)n1c(=O)n(C(=O)NCC23CCN(CC2)CC3)c2ccccc21`
4.3

* * *

Target: 5-HT3 receptor (Rattus norvegicus)
Construct: Brain cortices were obtained from male rats and a membrane fraction prepared by standard techniques; from tissue; host or cells: rat brain cortex, membrane fraction
Sequence (P35563 24-483): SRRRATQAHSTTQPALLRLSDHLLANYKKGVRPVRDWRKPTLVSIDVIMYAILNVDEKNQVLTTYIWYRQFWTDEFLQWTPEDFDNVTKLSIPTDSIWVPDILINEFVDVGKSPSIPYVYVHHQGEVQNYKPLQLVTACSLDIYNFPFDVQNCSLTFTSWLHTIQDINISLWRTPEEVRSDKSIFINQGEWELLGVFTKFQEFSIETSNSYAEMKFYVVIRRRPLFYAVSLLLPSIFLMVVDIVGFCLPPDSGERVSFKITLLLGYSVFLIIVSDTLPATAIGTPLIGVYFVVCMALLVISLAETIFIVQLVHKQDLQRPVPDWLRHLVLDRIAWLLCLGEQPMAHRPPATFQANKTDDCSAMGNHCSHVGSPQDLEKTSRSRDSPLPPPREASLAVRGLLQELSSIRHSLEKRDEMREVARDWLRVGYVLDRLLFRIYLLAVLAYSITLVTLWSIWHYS
Assay: [3H]-GR65630 radioligand binding to 5-HT3 receptor, rat brain cortex membranes
Settings: [3H]-GR65630 bound (0.2 nM)
metricName: IC50 (nM)
One number for each entry, in nM.

Return value of IC50 for input `CC(C)n1c(=O)n(C(=O)NCC23CCN(CC2)CC3)c2ccccc21` , no commentary.
8.6

* * *

Field: Hill Coefficient. Provide a value for each of the molecules that follow.
Molecular target: 5-HT3 receptor (Rattus norvegicus, UniProt P35563)
Construct: Brain cortices were obtained from male rats and a membrane fraction prepared by standard techniques; from tissue; host or cells: rat brain cortex, membrane fraction
Sequence (P35563 24-483): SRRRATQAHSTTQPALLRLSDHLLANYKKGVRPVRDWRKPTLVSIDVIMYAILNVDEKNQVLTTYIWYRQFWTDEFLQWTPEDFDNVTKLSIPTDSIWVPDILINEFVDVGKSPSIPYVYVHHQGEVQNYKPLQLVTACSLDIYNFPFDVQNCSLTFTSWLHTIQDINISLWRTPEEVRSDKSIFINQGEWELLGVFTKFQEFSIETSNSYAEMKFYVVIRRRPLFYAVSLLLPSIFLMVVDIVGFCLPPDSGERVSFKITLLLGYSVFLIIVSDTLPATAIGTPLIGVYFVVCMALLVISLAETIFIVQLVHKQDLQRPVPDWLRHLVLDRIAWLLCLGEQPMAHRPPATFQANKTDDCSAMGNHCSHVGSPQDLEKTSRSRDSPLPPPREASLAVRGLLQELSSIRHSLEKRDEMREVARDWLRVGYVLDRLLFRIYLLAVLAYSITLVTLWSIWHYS
Assay: [3H]-GR65630 radioligand binding to 5-HT3 receptor, rat brain cortex membranes
Settings: [3H]-GR65630 bound (0.2 nM)
Answers are plain numbers.

Examples with their reported Hill Coefficient follow.
{"columns": ["molecule", "Hill Coefficient"],
 "data": [
  ["c1ccc2nc(N3CCNCC3)ccc2c1 [Quipazine]", 0.86],
  ["CN1C2CCC1CC(OC(=O)c1c[nH]c3ccccc13)C2 (stereo not shown) [ICS 205-930]", 1.0],
  ["COc1cc(N)c(Cl)cc1C(=O)NC1CN2CCC1CC2 (stereo not shown) [Zacopride]", 0.86]
]}

Specify reported Hill Coefficient for the molecule shown: COc1ccc2[nH]cc(C3=CCNCC3)c2c1 [RU24969]
1.0
